For each of the molecules below, state its Increase in the fluorescent intensity (% margatoxin).
Molecular target: Kv 1.3-potassium channel (Homo sapiens)
Construct: expressed in transfected cells; host or cells: CHO cells, stably transfected with the Kv 1.3 plasmid using DMRIE-C
Assay: In-vitro Kv 1.3-potassium channel-blocking effect (membrane potential-sensitive fluorescent dye in transfected CHO cells)
Type: cell-based
Settings: 10 μM test substance; CHO cells transfected with Kv 1.3; relative to reference margatoxin
One number for each entry, in % margatoxin.

Below: 8 molecules and their reported Increase in the fluorescent intensity (% margatoxin).
CCc1ccc(S(=O)(=O)N(CC(C)(C)C)C2c3cc(CC(=O)NCCc4ccccc4)ccc3OC(C)(C)C2O)cc1 (stereo not drawn) [Example 10]
82
CCC(CC)CN(C1c2cc(CC(=O)NCc3ccco3)ccc2OC(C)(C)C1O)S(=O)(=O)c1cc(OC)ccc1OC (stereo not drawn) [Example 21]
86
CC1(C)Oc2ccc(CC(=O)NC3CCCc4ccccc43)cc2C(NS(=O)(=O)c2cccc(F)c2)C1O (mixture of isomers) [Example 13]
53
Cc1ccc(S(=O)(=O)N(CCC(C)C)C2c3cc(CC(=O)NCc4ccccc4)ccc3OC(C)(C)C2O)cc1 (stereo not drawn) [Example 19]
171
CCCCCN(C1c2cc(CC(=O)NC(C)C(C)C)ccc2OC(C)(C)C1O)S(=O)(=O)c1cccc(OC)c1 (stereo not drawn) [Example 22]
71
CCCCNC(=O)Cc1ccc2c(c1)C(N(CC(CC)CC)S(=O)(=O)c1cc(OC)ccc1OC)C(O)C(C)(C)O2 (stereo not drawn) [Example 6]
97
Cc1cccc(S(=O)(=O)NC2c3cc(CC(=O)NCc4ccc(Cl)cc4)ccc3OC(C)(C)C2O)c1 (stereo not drawn) [Example 5]
82
CCCCNC(=O)Cc1ccc2c(c1)C(NS(=O)(=O)c1ccc(I)cc1)C(O)C(C)(C)O2 (stereo not drawn) [Example 17]
72

Now consider the entry below.
Increase in the fluorescent intensity (% margatoxin) lookup needed for CCc1ccc(S(=O)(=O)N[C@@H]2c3cc(CC(=O)NCc4ccccc4)ccc3OC(C)(C)[C@H]2O)cc1 [Example 11] , thanks.
99

====

Target: Kv 1.3-potassium channel (Homo sapiens, UniProt P22001)
Construct: expressed in transfected cells; host or cells: CHO cells, stably transfected with the Kv 1.3 plasmid using DMRIE-C
Sequence (P22001 whole entry): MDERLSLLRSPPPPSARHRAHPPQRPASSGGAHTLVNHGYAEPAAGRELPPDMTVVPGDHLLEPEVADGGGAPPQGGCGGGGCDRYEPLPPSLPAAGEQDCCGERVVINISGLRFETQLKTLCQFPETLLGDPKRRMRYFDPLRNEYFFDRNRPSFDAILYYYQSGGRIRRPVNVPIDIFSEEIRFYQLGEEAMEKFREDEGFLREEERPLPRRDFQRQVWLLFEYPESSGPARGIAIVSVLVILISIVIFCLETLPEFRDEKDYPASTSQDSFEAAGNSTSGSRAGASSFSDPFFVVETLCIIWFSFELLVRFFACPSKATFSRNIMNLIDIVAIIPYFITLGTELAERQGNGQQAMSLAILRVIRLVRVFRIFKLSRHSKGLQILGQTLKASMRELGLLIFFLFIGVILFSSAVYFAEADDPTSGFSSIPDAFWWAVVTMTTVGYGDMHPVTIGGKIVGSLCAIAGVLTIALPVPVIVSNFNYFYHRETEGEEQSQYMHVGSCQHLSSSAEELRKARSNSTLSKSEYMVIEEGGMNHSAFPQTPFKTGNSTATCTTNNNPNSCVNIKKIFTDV
Assay: In-vitro Kv 1.3-potassium channel-blocking effect (membrane potential-sensitive fluorescent dye in transfected CHO cells)
Format: cell-based
Conditions: 10 μM test substance; CHO cells transfected with Kv 1.3; relative to reference margatoxin
For each of the compounds below, state its Increase in the fluorescent intensity (% margatoxin).
Numbers only, in % margatoxin.

Report Increase in the fluorescent intensity (% margatoxin) for every entry below.
1. CCc1ccc(S(=O)(=O)N[C@@H]2c3cc(CC(=O)N[C@@H]4CCCc5ccccc54)ccc3OC(C)(C)[C@H]2O)cc1
2. CC(C)CCN(C1c2cc(CC(=O)NCc3ccccc3)ccc2OC(C)(C)C1O)S(=O)(=O)c1ccc(C(F)(F)F)cc1 (stereo not shown)

1: 72; 2: 41

Report Increase in the fluorescent intensity (% margatoxin) for every entry below.
1. Cc1ccc(S(=O)(=O)N(CC2CC2)C2c3cc(CC(=O)NCc4ccccc4)ccc3OC(C)(C)C2O)cc1 (stereo not shown)
2. CCc1ccc(S(=O)(=O)N[C@@H]2c3cc(CC(=O)N[C@H]4CCCc5ccccc54)ccc3OC(C)(C)[C@H]2O)cc1

1: 141; 2: 107

====

For each of the molecules below, state its FRP prolongation.
Tested on: left atrium of rats' hearts
Test: Functional refractory period prolongation on isolated left atria of rats' hearts in vitro
Set-up: species or system rat (Sprague-Dawley)
Settings: 10 μM
Just the number plus its unit, please.

Below: 5 molecules and their reported FRP prolongation.
CCc1ccc(S(=O)(=O)NC2c3cc(CC(=O)NC4CCCc5ccccc54)ccc3OC(C)(C)C2O)cc1 (stereo not shown)
15 ms
CCc1ccc(S(=O)(=O)N(CC(C)(C)C)C2c3cc(CC(=O)NCc4ccccc4)ccc3OC(C)(C)C2O)cc1 (stereo not shown)
17 ms
CCc1ccc(S(=O)(=O)N[C@@H]2c3cc(CC(=O)N[C@@H]4CCCc5ccccc54)ccc3OC(C)(C)[C@H]2O)cc1
20 ms
CCc1ccc(S(=O)(=O)N(CC(C)(C)C)C2c3cc(CC(=O)NCCc4ccccc4)ccc3OC(C)(C)C2O)cc1 (stereo not shown)
20 ms
CCc1ccc(S(=O)(=O)NC2c3cc(CC(=O)N4CCN(c5ccccc5)CC4)ccc3OC(C)(C)C2O)cc1 (stereo not shown)
20 ms

Report FRP prolongation for every entry below.
1. Cc1ccc(S(=O)(=O)NC2c3cc(CC(=O)NC4CCCc5ccccc54)ccc3OC(C)(C)C2O)cc1 (mixture of isomers)
2. CCc1ccc(S(=O)(=O)N(CC(C)(C)C)[C@@H]2c3cc(CC(=O)NCc4ccccc4)ccc3OC(C)(C)[C@H]2O)cc1

["30 ms", "24 ms"]

====

Tested on: ventricle of guinea pigs
Assay: Functional effectiveness on guinea-pig hearts in vivo (ERP, QT, QRS, systolic blood pressure)
Parameters: species or system guinea pig (Dunkin-Hartley)
Details: 1 min. after 10 μmole/kg i.v.; guinea pigs; minus effects due to the vehicle; negative values indicate reduction
Measured Attribute: syst. blood pressure (change) (mm Hg)
Give bare numbers, in mm Hg.

Below: 2 compounds and their reported syst. blood pressure (change).
CCc1ccc(S(=O)(=O)N(CC(C)(C)C)[C@@H]2c3cc(CC(=O)NCc4ccccc4)ccc3OC(C)(C)[C@H]2O)cc1
−15.3
CCc1ccc(S(=O)(=O)N(CC(C)(C)C)[C@H]2c3cc(CC(=O)NCc4ccccc4)ccc3OC(C)(C)[C@@H]2O)cc1
−10.7

Report syst. blood pressure (change) for every entry below.
1. CCc1ccc(S(=O)(=O)N(CC(C)(C)C)C2c3cc(CC(=O)NCCc4ccccc4)ccc3OC(C)(C)C2O)cc1 (stereo not drawn)
2. CCc1ccc(S(=O)(=O)NC2c3cc(CC(=O)N4CCN(c5ccccc5)CC4)ccc3OC(C)(C)C2O)cc1 (stereo not drawn)

−15.9
−8.6

====

For each of the compounds below, state its IC50.
Biological target: Kv 1.5-potassium channel (Homo sapiens, UniProt P22460)
Sequence (P22460 whole entry): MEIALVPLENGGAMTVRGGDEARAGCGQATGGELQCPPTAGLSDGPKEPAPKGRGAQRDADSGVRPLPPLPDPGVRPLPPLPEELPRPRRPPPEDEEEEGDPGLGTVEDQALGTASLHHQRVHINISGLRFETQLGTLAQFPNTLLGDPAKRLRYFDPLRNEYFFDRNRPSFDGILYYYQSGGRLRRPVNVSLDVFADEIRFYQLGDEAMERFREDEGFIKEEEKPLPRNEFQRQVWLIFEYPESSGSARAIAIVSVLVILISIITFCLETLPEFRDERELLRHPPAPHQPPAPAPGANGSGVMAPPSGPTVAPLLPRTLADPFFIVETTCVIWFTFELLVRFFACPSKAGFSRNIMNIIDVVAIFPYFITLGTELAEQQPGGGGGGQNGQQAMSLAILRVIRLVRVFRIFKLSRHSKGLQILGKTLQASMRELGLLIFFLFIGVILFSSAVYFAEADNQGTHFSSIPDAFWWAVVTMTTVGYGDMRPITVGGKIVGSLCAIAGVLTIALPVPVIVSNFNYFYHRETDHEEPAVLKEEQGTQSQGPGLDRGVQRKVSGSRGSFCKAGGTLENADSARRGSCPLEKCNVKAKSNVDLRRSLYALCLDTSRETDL
Experiment: In-vitro Kv 1.5-potassium channel-blocking effect (Rb+ outflow from CHO cells, atomic absorption spectroscopy)
Settings: CHO cells stably expressing Kv 1.5, read-out: IC50 (Kv1.5-potassium channel-blocking effect, concentration of half-maximum inhibition)
Numbers only, in µM.

Below: 10 compounds and their reported IC50.
CCc1ccc(S(=O)(=O)N(CC(C)(C)C)[C@H]2c3cc(CC(=O)NCc4ccccc4)ccc3OC(C)(C)[C@@H]2O)cc1 [Example 8]
0.5
COc1cccc(S(=O)(=O)N(CCC(C)C)C2c3cc(CC(=O)NCc4ccc(Cl)cc4)ccc3OC(C)(C)C2O)c1 (centres unmarked) [Example 27]
5.6
CCc1ccc(S(=O)(=O)N[C@@H]2c3cc(CC(=O)N[C@H]4CCCc5ccccc54)ccc3OC(C)(C)[C@H]2O)cc1 [Example 9]
2.9
CCc1ccc(S(=O)(=O)N(CC(C)(C)C)[C@@H]2c3cc(CC(=O)NCc4ccccc4)ccc3OC(C)(C)[C@H]2O)cc1 [Example 7]
1.5
Cc1ccc(S(=O)(=O)N(CCC(C)C)C2c3cc(CC(=O)NCc4ccccc4)ccc3OC(C)(C)C2O)cc1 (centres unmarked) [Example 19]
2.5
CC(C)CCN(C1c2cc(CC(=O)NCc3ccccc3)ccc2OC(C)(C)C1O)S(=O)(=O)c1ccc(C(F)(F)F)cc1 (centres unmarked) [Example 23]
4.3
CCC(CC)CN(C1c2cc(CC(=O)NCc3ccco3)ccc2OC(C)(C)C1O)S(=O)(=O)c1cc(OC)ccc1OC (centres unmarked) [Example 21]
3.3
CCCCNC(=O)Cc1ccc2c(c1)C(NS(=O)(=O)c1ccc(I)cc1)C(O)C(C)(C)O2 (centres unmarked) [Example 17]
2.65
CCc1ccc(S(=O)(=O)N(CC(C)(C)C)C2c3cc(CC(=O)NCCc4ccccc4)ccc3OC(C)(C)C2O)cc1 (centres unmarked) [Example 10]
1.6
Cc1ccc(S(=O)(=O)NC2c3cc(CC(=O)NC4CCCc5ccccc54)ccc3OC(C)(C)C2O)cc1 (mixture of isomers) [Example 15]
4

Report IC50 for every entry below.
1. CC1(C)Oc2ccc(CC(=O)NC3CCCc4ccccc43)cc2C(NS(=O)(=O)c2cccc(F)c2)C1O (mixture of isomers) [Example 13]
2. Cc1cccc(S(=O)(=O)NC2c3cc(CC(=O)NCc4ccc(Cl)cc4)ccc3OC(C)(C)C2O)c1 (centres unmarked) [Example 5]
3. CCCCCN(C1c2cc(CC(=O)NC(C)C(C)C)ccc2OC(C)(C)C1O)S(=O)(=O)c1cccc(OC)c1 (centres unmarked) [Example 22]

1. 6.5
2. 5
3. 3.4

IC50 lookup needed for CCCNC(=O)Cc1ccc2c(c1)C(N(CC(C)C)S(=O)(=O)c1ccc(F)c(Cl)c1)C(O)C(C)(C)O2 (centres unmarked) [Example 24] , thanks.
5

====

Target: Kv 1.5-potassium channel (Homo sapiens, UniProt P22460)
Construct: expressed in transfected cells
Test: In-vitro Kv 1.5-potassium channel-blocking effect (Rb+ outflow from CHO cells, atomic absorption spectroscopy)
Assay type: cell-based
Conditions: CHO cells stably expressing Kv 1.5, read-out: IC50 (Kv1.5-potassium channel-blocking effect, concentration of half-maximum inhibition)
Text: 1. In-Vitro Investigation of the Kv 1.5-Potassium Channel-Blocking Effect of the Substances In this test model, a cell line of egg cells of the Chinese hamster (=“Chinese hamster oocytes”, “CHO”) is used which originates from a single cell and stably expresses the Kv 1.5-channel. […]
For each of the molecules below, state its pIC50.
Answers are plain numbers, as −log10 of the molar value.

Below: 2 molecules and their reported pIC50.
CCc1ccc(S(=O)(=O)N(CC(C)(C)C)C2c3cc(CC(=O)NCc4ccccc4)ccc3OC(C)(C)C2O)cc1 (stereo not shown)
5.80
Cc1ccc(S(=O)(=O)N(CC2CC2)C2c3cc(CC(=O)NCc4ccccc4)ccc3OC(C)(C)C2O)cc1 (stereo not shown)
5.57

Report pIC50 for every entry below.
1. CCc1ccc(S(=O)(=O)N[C@@H]2c3cc(CC(=O)N[C@@H]4CCCc5ccccc54)ccc3OC(C)(C)[C@H]2O)cc1
2. CCc1ccc(S(=O)(=O)NC2c3cc(CC(=O)N4CCN(c5ccccc5)CC4)ccc3OC(C)(C)C2O)cc1 (stereo not shown)

[5.70, 5.20]
